Entry source: PubChem BioAssay AID1159580

Below, each entry is listed alongside its reported normalized growth.
experiment: chemical genetic growth profiling, strain panel (AID 1159580);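 further: tested at 20 µM; growth read once vehicle control cultures reached saturation at 30 °C; 1 = growth at the plate median or of vehicle wells; lower values mean less growth of the strain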; conditions: S. cerevisiae deletion strains, growth OD, locus YMR058W, strain fet3, stronger effect = lower value
About 2,000 (36%) of roughly 5,500 compounds were called active. About 18% were inconclusive and are not listed. This is one part of the list.
MEASURED QUANTITY: normalized growth

1. CC12CCC3C(=CCc4cc(O)ccc43)C1CCC2=O (stereo not given) = 0.959
2. C[C@]12CCC3c4ccc(OC(=O)c5ccccc5)cc4CCC3C1CCC2=O (stereo not given in full) = 0.985
3. CC(=O)OC/C=C(\C)CC/C=C(\C)CC/C=C(\C)CC/C=C(\C)CC/C=C(\C)CC/C=C(\C)CC/C=C(\C)CC/C=C(\C)CCC=C(C)C = 0.984
4. CC(=O)C1CC[C@H]2C3CC[C@H]4C[C@H](O)CC[C@]4(C)C3CC[C@]12C (stereo not given in full) = 1.01
5. CC(O)(P(=O)(O)O)P(=O)(O)O = 0.998
